Origin of measurements: paper PMC9162458

Target: T1, LiRAD51^ATPase (Leishmania infantum RAD51 ATPase domain, residues 134–386) (Leishmania infantum)
T1 chain: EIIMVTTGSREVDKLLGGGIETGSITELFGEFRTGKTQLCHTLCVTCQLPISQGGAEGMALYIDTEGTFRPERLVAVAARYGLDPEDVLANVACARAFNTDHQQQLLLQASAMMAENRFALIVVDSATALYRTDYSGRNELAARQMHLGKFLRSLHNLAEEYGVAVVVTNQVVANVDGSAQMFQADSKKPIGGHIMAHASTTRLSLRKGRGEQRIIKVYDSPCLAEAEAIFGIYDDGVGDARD
Assay: FP
Ends that are not written are not given here.
Record form. Attribute: IC50. Fill in for each entry.
Lab book: enter the figure in µM, no units written.

Task: Using the record for LVPTLFSTASGKPVTVRRESLQKV (domain or fragment, not fully specified (N-terminus, C-terminus); also: GB1 fusion) [LiBRC1.9 (C-terminal truncation of LiBRC1, GB1 fusion)] , report its IC50.
Result: 11

Task: # iterate: AAAPPLVPTLFSTASGKPVTVRRESLQKVAERLGDLAA (domain or fragment, not fully specified (N-terminus); also: GB1 fusion) [LiBRC1.3 (LiBRC1 with extended termini, GB1 fusion)]
Result: 1.67

Task: # iterate: LVPTLFSTASGKPVTVRRESLQKVAERLGDLAAPDME (domain or fragment, not fully specified (N-terminus); also: GB1 fusion) [LiBRC1.2 (LiBRC1 with extended termini, GB1 fusion)]
Result: 1.2

Task: # iterate: LVPTLFSTASGKPVTVRRESLQ (domain or fragment, not fully specified (N-terminus); also: GB1 fusion) [LiBRC1.11 (C-terminal truncation of LiBRC1 up until Gln129, GB1 fusion)]
Result: 36.5

Task: # iterate: LVPTLFSTASGKPVTVRRESLQKVA (domain or fragment, not fully specified (N-terminus); also: GB1 fusion) [LiBRC1.8 (C-terminal truncation of LiBRC1, Glu133 also removed, GB1 fusion)]
Result: 8.8

Task: # iterate: LVPTLFSTASGKPVTVRRESLQKVAE (domain or fragment, not fully specified (N-terminus); also: GB1 fusion) [LiBRC1.7 (C-terminal truncation of LiBRC1, residues up to Arg134 removed, GB1 fusion)]
Result: 1.99

Task: # iterate: LVPTLFSTASGKPVTVRRESLQK (domain or fragment, not fully specified (N-terminus); also: GB1 fusion) [LiBRC1.10 (C-terminal truncation of LiBRC1, Val131 also removed, GB1 fusion)]
Result: 41
